The reported measurements were obtained from patent US20230303690A1.

// reported RU per item
# measured target: T1, LAG3 Protein, Human, Recombinant (His Tag) (Sino Biological Catalog No. 16498-H08H) (human, UniProt P18627 23-450)
# T1 construct: Bought protein; also called hLAG3-His; LAG3-His; not shown: His tag
# T1 sequence (looked up): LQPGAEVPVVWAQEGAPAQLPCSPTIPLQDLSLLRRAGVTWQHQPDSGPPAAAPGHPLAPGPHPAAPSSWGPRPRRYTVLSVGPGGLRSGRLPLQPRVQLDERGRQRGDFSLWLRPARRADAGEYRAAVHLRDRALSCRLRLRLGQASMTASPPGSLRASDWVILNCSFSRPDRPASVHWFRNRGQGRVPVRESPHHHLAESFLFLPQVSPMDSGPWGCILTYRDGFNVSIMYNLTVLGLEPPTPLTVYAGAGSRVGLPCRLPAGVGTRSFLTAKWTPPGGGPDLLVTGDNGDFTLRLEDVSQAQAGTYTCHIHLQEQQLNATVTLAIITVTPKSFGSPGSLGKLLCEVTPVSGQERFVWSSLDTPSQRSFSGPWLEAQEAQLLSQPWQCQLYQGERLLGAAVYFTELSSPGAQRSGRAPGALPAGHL
# experiment: SPR binning on LAG3-His; competitor 73
# Procedure: The chip surface was regenerated after each cycle with 25 mM NaOH followed by HBS-EP wash provided in the kit.
Report the value in RU with no unit label.

• sdAb No. 18 (VHH, Fc of the tested form not described; also called sdAb 18; not shown: Fc part implied by anti-human Fc capture) VHH: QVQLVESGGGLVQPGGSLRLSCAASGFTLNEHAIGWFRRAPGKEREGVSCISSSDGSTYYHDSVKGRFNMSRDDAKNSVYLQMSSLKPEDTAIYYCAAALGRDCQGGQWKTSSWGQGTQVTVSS = -11.1

Reported RU ( sdAb No. 1 (VHH, the tested form was captured by anti-human Fc, its Fc is not described; also called sdAb 1; not shown: Fc part implied by anti-human Fc capture) VHH: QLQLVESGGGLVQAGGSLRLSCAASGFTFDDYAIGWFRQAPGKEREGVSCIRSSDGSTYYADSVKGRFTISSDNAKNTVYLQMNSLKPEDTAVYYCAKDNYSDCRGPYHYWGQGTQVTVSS ) = -11.6

Reported RU ( sdAb No. 73 (VHH, Fc not described; also called sdAb 73; not shown: Fc part implied by anti-human Fc capture) VHH: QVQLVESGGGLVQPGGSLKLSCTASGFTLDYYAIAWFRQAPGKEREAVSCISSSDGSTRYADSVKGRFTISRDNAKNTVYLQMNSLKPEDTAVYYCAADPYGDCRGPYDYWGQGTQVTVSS ) = -9.7

Reported RU ( sdAb No. 24 (VHH, Fc of the tested form not described; also called sdAb 24; not shown: Fc part implied by anti-human Fc capture) VHH: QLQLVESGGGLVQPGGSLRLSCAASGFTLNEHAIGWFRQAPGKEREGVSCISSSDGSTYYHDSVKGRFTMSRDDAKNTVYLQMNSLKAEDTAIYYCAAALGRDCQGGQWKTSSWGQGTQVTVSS ) = -11.3

Reported RU ( sdAb No. 20 (VHH, Fc of the tested form not described; also called sdAb 20; not shown: Fc part implied by anti-human Fc capture) VHH: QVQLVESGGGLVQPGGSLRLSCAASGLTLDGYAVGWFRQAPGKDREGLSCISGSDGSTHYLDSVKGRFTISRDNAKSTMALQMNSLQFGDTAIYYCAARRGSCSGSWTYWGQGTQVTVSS ) = -21.8
